- Target System: human D1R (Homo sapiens, UniProt P21728)
- Sequence (P21728 whole entry): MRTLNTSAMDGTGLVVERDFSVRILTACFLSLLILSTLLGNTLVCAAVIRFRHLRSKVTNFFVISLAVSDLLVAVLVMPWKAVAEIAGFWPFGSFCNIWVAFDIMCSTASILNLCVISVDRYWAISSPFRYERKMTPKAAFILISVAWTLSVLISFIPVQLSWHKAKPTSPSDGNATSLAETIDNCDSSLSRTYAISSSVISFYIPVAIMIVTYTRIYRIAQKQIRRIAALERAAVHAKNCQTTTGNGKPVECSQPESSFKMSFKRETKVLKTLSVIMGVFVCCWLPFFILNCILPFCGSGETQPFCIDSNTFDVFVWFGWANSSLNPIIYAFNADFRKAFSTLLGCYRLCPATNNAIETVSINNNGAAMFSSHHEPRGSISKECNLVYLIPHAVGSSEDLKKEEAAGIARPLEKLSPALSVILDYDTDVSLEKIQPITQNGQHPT
- Protocol: D1R β-arrestin recruitment assay (DiscoverX PathHunter, CHO-K1 cells)
- Run Parameters: fold change of dopamine EC50, 50 μM compound
The label Y is reserved for D1 Beta-Arrestin: DA + 50 μM PAM, Fold Chg EC50 strictly under 1; N covers values equal to or above it.

{"Compound": "NC(=O)c1c(NC(=O)c2ccccn2)sc2c1CCCC2 [Compound 36]", "Assigned Label": "Y"}
{"Compound": "CC(C)(C)C1CCc2c(sc(NC(=O)c3ccc4ccccc4n3)c2C(N)=O)C1 (centres unmarked) [Compound 32]", "Assigned Label": "Y"}
{"Compound": "CCOC(=O)c1c(NC(=O)c2cccnc2)sc2c1CCC(C(C)(C)C)C2 (centres unmarked) [Compound 39]", "Assigned Label": "N"}
{"Compound": "CC1CCc2c(sc(NC(=O)c3ccc4ccccc4n3)c2C(N)=O)C1 (centres unmarked) [Compound 31]", "Assigned Label": "N"}

Now look at this entry.
Problem: Does the reported D1 Beta-Arrestin: DA + 50 μM PAM, Fold Chg EC50 of the following compound sit strictly below 1? CN1CCc2c(sc(NC(=O)c3ccncc3)c2C#N)C1 [Compound 34]
Result: Y

====

DA + 50 μM PAM, Fold Change EC50: recorded values
- Target System: UniProt:P21728
- Protocol: D1R β-arrestin recruitment assay (DiscoverX PathHunter, CHO-K1 cells)
- Run Parameters: fold change of DA EC50 with 50 μM PAM; Dopamine D1-β-arrestin Assay

// solved cases for DA + 50 μM PAM, Fold Change EC50 follow
{"Molecule": "Cc1ccccc1NC(=O)c1c(NC(=O)c2ccncc2)sc2c1CCC(C)C2 (stereo not shown) [R4=NH-2-MePh; R5=NHCO-4-pyridyl; R6=Me]", "Target System": "UniProt:P21728", "DA + 50 μM PAM, Fold Change EC50": 2.09}
{"Molecule": "NC(=O)c1c(NC(=O)c2cccnc2)sc2c1CCCC2 [R4=NH2; R5=NHCO-3-pyridyl; R6=H]", "Target System": "UniProt:P21728", "DA + 50 μM PAM, Fold Change EC50": 1.88}
{"Molecule": "CC1CCc2c(sc(NC(=O)c3ccc(O)cc3)c2C(N)=O)C1 (stereo not shown) [R4=NH2; R5=NHCO-4-HOPh; R6=Me]", "Target System": "UniProt:P21728", "DA + 50 μM PAM, Fold Change EC50": 1.76}

Next up:
Problem: Please provide the recorded DA + 50 μM PAM, Fold Change EC50 for CC(C)(C)C1CCc2c(sc(NC(=O)c3ccco3)c2C(N)=O)C1 (stereo not shown) [R4=NH2; R5=NHCO-2-furanyl; R6=t-Bu] , tested on UniProt:P21728.
Result: 2.19

====

DA + 50 μM PAM, Fold Change EC50: recorded values
- Target System: UniProtKB P21917
- Sequence (P21917 whole entry): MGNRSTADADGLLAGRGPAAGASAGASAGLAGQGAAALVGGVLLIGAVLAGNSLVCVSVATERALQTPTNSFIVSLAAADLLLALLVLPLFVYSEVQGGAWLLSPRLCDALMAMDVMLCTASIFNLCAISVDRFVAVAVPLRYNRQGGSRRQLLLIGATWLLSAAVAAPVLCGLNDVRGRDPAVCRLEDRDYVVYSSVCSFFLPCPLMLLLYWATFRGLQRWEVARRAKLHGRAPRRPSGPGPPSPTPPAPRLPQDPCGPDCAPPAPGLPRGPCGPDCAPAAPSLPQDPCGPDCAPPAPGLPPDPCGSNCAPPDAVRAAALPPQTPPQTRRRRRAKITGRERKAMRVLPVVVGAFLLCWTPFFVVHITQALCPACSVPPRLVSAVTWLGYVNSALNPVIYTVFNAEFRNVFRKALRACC
- Protocol: D4 β-arrestin recruitment assay (DiscoverX PathHunter, CHO-K1 cells)
- Assay type: cell-based
- Set-up: inferred from the same PathHunter system described for D1R and D5R; host or cells: CHO-K1
- Run Parameters: fold change of DA EC50 with 50 μM PAM; Dopamine D4-β-arrestin Assay

{"Molecule": "CC1CCc2c(sc(NC(=O)c3ccc(O)cc3)c2C(N)=O)C1 (stereo not shown) [R4=NH2; R5=NHCO-4-HOPh; R6=Me]", "DA + 50 μM PAM, Fold Change EC50": 1.2}
{"Molecule": "Cc1ccccc1NC(=O)c1c(NC(=O)c2ccncc2)sc2c1CCC(C)C2 (stereo not shown) [R4=NH-2-MePH; R5=NHCO-4-pyridyl; R6=Me]", "DA + 50 μM PAM, Fold Change EC50": 1.09}
{"Molecule": "NC(=O)c1c(NC(=O)c2cccnc2)sc2c1CCCC2 [R4=NH2; R5=NHCO-3-pyridyl; R6=H]", "DA + 50 μM PAM, Fold Change EC50": 1.21}

Next up:
Problem: Entry under review: CC(C)(C)C1CCc2c(sc(NC(=O)c3ccco3)c2C(N)=O)C1 (stereo not shown) [R4=NH2; R5=NHCO-2-furanyl; R6=t-Bu] . Reported DA + 50 μM PAM, Fold Change EC50?
Result: 1.17
